- STUDY_SYSTEM: hCLEC12A-His fusion protein (human) (UniProt Q5QGZ9)
- Sequence (Q5QGZ9 65-265 limits assumed): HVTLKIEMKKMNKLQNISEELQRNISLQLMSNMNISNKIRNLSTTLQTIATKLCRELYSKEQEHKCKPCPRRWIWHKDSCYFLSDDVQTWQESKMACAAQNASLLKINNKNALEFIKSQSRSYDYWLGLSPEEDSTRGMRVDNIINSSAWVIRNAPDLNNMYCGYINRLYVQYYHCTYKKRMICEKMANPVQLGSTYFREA
- RUN_DESCRIPTION: SPR screening, semi-purified protein
Please go through the items and note down their koff.
Could you give me the number in s⁻¹? Just the number is fine.

binder AB0192 (bispecific antibody, part only; not given: Fc, unrelated binder arm, linkers, not shown: another chain or arm of the molecule; a dimerising Fc or GST; small tags and cut ends) scFv: EVQLVESGGGVVQPGGSLRLSCAASGFTFNAFGMHWVRQAPGKCLEWVAFISSGSTSIYYANTVKGRFTISRDNSKNTLYLQMNSLRAEDTAVYYCARDGYPTGGAMDYWGQGTSVTVSSGGGGSGGGGSGGGGSGGGGSDIQMTQSPSSLSASVGDRVTITCKASQDIYNYLSWFQQKPGKAPKPLIYRANILVSGVPSRFSGSGSGQDYTFTISSLQPEDIATYYCLQFDAFPFTFGCGTKLEIK , koff observed: 0.00138

Per the record, AB0186 (bispecific antibody, part only; not given: Fc, unrelated binder arm, linkers, not shown: another chain or arm of the molecule; a dimerising Fc or GST; small tags and cut ends) scFv: DIQMTQSPSSLSASVGDRVTITCKASQDIYNYLSWFQQKPGKAPKPLIYRANILVSGVPSRFSGSGSGQDYTFTISSLQPEDIATYYCLQFDAFPFTFGCGTKLEIKGGGGSGGGGSGGGGSGGGGSEVQLVESGGGVVQPGGSLRLSCAASGFTFNAFGMHWVRQAPGKCLEWVAFISSGSTSIYYANTVKGRFTISRDNSKNTLYLQMNSLRAEDTAVYYCARDGYPTGGAMDYWGQGTSVTVSS has koff of 0.00117

Entry F3′-1295 (bispecific antibody, part only; not given: Fc and unrelated binding arm, not shown: another chain or arm of the molecule; a dimerising Fc or GST) scFv: QLQLQESGPGLVKPSETLSLTCTVSGFSLTNYGLHWIRQPPGKCLEWIGVIWSGGKTDYNPSLKSRVTISKDTSKNQFSLKLSSVQAADTAVYYCAKYDYDDSLDYWGQGTLVTVSSGGGGSGGGGSGGGGSGGGGSDIQMTQSPSSLSASVGDRVTITCHASQNINFWLSWYQQKPGKIPKLLIYEASNLHTGVPSRFSGSGSGTRFTLTISSLQPEDIATYYCQQSHSYPLTFGCGTKLEIK ; koff = 0.00153
